- tgt: interaction of AKAP-Lbc/DHPH and RhoA (Homo sapiens)
- Construct: His6-AKAP-Lbc/DHPH (aa 1972–2342 of human AKAP-Lbc; NP_006729.4); made in house
- Sequence (P61586 whole entry, the tested form may be a part): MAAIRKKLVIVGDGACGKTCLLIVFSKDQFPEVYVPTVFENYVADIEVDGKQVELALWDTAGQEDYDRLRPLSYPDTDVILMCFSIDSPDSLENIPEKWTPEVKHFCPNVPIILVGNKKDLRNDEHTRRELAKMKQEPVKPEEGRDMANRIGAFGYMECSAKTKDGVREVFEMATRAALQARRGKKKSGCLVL
- assay protocol: Homogeneous time-resolved fluorescence (HTRF) assay
- Assay type: binding
- condition context: IC50 ± SEM, Table 1; HTRF; '-' = no IC50, inactive (n.d. is used separately in S3 Table)
- Text: Fig 2 The small molecule Scaff10-8 inhibits the interaction of the DH domain of AKAP-Lbc and RhoA. (A). Principle of homogenous time-resolved fluorescence (HTRF) assay. Recombinant His-AKAP-Lbc/DHPH and GST-RhoA were generated. The tags are recognized by specific antibodies coupled to fluorescent dyes. When the two proteins interact, donor and acceptor dyes of the antibodies are in close proximity, energy transfer occurs upon excitation at 320 nm and a FRET signal is detected (665 nm). […]
Kindly supply the reported pIC50 values for the records listed here.
Hey, just a heads up that pIC50 is the negative log base 10 of the concentration in molar.

Record summary for Cc1c(CCC(=O)O)c(=O)oc2cc3occ(-c4ccc(Oc5ccccc5)cc4)c3cc12 [Scaff10-38] : reported pIC50 = 4.44

Measured pIC50 of COc1ccc2cc(-c3coc4cc5oc(=O)c(CCC(=O)O)c(C)c5cc34)ccc2c1 [Scaff10-44] : 4.68

Sure, the documented pIC50 for COc1cccc(-c2ccc(-c3coc4cc5oc(=O)c(CCC(=O)O)c(C)c5cc34)cc2)c1 [Scaff10-64] is 4.54

pIC50 in this record for COc1cccc(-c2ccc(C(=O)COc3ccc4c(C)c(CCC(=O)O)c(=O)oc4c3)cc2)c1 [Scaff10-63] : 4.61

What the record says about Cc1c(CCC(=O)O)c(=O)oc2cc(OCC(=O)c3ccc(-c4ccccc4)cc3)ccc12 [Scaff10-40] : pIC50 is 4.68

---

Could you please report measured solubility for the items listed next?
- assay protocol: Nephelometric solubility
- Format: physicochemical
- condition context: maximal solubility in DMEM + 10 % FCS, 2 % DMSO final; read-out: Solubility 2 % DMSO
Quick note: give the figure in µM, leave out the unit.

Notebook: CCOC(=O)CCc1c(C)c2ccc(OCC(=O)c3ccc(-c4ccc(F)cc4)nc3C)cc2oc1=O [Scaff10-10] , solubility read as 30

Given item COc1ccc(C(=O)COc2ccc3c(C)c(C)c(=O)oc3c2)cc1 [AE168] , the value recorded as its solubility is 75

Please fill in: solubility reported for COc1ccc(-c2coc3cc4oc(=O)c(CCC(=O)NO)c(C)c4cc23)cc1 [Scaff10-51] = 20

Entry COc1ccc2cc(-c3coc4cc5oc(=O)c(C)c(C)c5cc34)ccc2c1 [Scaff10-47] , solubility reported as 15

Measured solubility of Cc1c(C)c2cc3c(-c4ccc(-c5ccccc5)cc4)coc3cc2oc1=O [Scaff10-46] : 15

The recorded solubility for COc1ccc(-c2coc3cc4oc(=O)c(CCC(=O)N(C)C)c(C)c4cc23)cc1 [Scaff10-26] is 50

The measured solubility associated with COC(=O)CCc1c(C)c2cc3c(-c4ccc(OC)cc4)coc3cc2oc1=O [Scaff10-48] reads 30

---

- assay protocol: Nephelometric solubility
- Format: physicochemical
- condition context: maximal solubility in DMEM + 10 % FCS, 0.3 % DMSO final; read-out: Solubility 0.3 % DMSO
metric name: solubility

solubility for COc1ccc(-c2coc3cc4oc(=O)c(CCC(=O)N(C)C)c(C)c4cc23)cc1 is > 150 µM

Recorded solubility (compound Cc1c(CCC(=O)O)c(=O)oc2cc(OCC(=O)c3ccc(N(C)C)cc3)ccc12 ): > 150 µM

// field: solubility; key: COc1ccc(-c2coc3cc4oc(=O)c(CCC(=O)NO)c(C)c4cc23)cc1 ; value = 40 µM

solubility for COc1ccc2cc(-c3coc4cc5oc(=O)c(C)c(C)c5cc34)ccc2c1 is > 150 µM

Per the records, this compound ( Cc1c(CCC(=O)O)c(=O)oc2cc3occ(-c4ccncc4)c3cc12 ) has solubility equal to > 150 µM

COC(=O)CCc1c(C)c2cc3c(-c4ccc(OC)cc4)coc3cc2oc1=O has a reported solubility of 75 µM

Briefly, solubility measured for CCOC(=O)CCc1c(C)c2ccc(OCC(=O)c3ccc(-c4ccc(F)cc4)nc3C)cc2oc1=O : > 150 µM

Looking up Cc1c(C)c2cc3c(-c4ccc(-c5ccccc5)cc4)coc3cc2oc1=O , I see its solubility listed as > 150 µM
